# measuredTarget: Sulfhydryl oxidase 1 (Homo sapiens)
# protocolNotes: inhibition of human sulfhydryl oxidase QSOX1 – biochemical, HyperBlu H2O2 luminescence, HTS, primary screen (AID 1347420); further: values above 100% were filed as inconclusive
# conditionParameters: recombinant QSOX1, HyperBlu H2O2 luminescence; at 12.5 µM; hits give high values; active = any value above zero
Out of some 1,300 compounds screened, about 980 (75%) were called active. Not shown: some 4% with an inconclusive outcome. The list shows a part of the results.
# Lookup of reported inhibition keyed by entry
Reply with just the number (in %).

Recorded inhibition (compound CC1CNCCN1S(=O)(=O)c1cccc2cnccc12 (stereo unspecified) ): 37.4

Form field inhibition, entry "Oc1cc(O)c2c(c1)O[C@H](c1ccc(O)c(O)c1)[C@@H](O)C2" : 72.1

Sample "CCOC(=O)Nc1ccc(NCc2ccc(F)cc2)nc1N" ; inhibition observed: 40

Sample "CCN(CC)C(=O)c1ccc(O)c(OC)c1" ; inhibition observed: 17.3

Value of inhibition reported for the compound "CC1(C)NC(=O)N(c2ccc([N+](=O)[O-])c(C(F)(F)F)c2)C1=O" is -8.3

Per the records, this compound ( "NCCc1ccc(O)c(O)c1" ) has inhibition equal to 61.7

Note to self: inhibition recorded for "Cn1c(=O)c2[nH]cnc2n(C)c1=O" was 20.2

The compound listed as "CC(C)NNC(=O)c1ccncc1" shows inhibition equal to 0.1

----------
# measuredTarget: Sulfhydryl oxidase 1 (Homo sapiens)
# protocolNotes: inhibition of human sulfhydryl oxidase QSOX1 – biochemical, HyperBlu H2O2 luminescence, HTS, primary screen (AID 1347420); further: values above 100% were filed as inconclusive
# conditionParameters: recombinant QSOX1, HyperBlu H2O2 luminescence; at 12.5 µM; hits give high values; active = any value above zero
About 980 (75%) of roughly 1,300 compounds were called active. Inconclusive results (about 4%) are left out. This is one part of the list.
Rule: inhibition of 10% or more gives t; anything lower gives f.

NC(N)=NC(N)=Nc1cccc(Cl)c1 = t
O=C1CCC(N2C(=O)c3ccccc3C2=O)C(=O)N1 (centres undefined) = f
CN1CCC[C@H]1c1cccnc1 = f
Clc1ccc2nsnc2c1NC1=NCCN1 = f

Is inhibition for "O=C(O)/C=C/c1ccc(O)c(O)c1" at or above 10%? t

Check if inhibition >= 10% (inclusive). Item: "Fc1ccc(C(OCCCc2cnc[nH]2)c2ccc(F)cc2)cc1" t

Could you verify whether the entry "CNC[C@H](O)c1ccc(O)c(O)c1" shows inhibition of no less than 10%? t

Please indicate if the recorded inhibition for "NCCCCCC(=O)O" meets or exceeds 10%. t

----------
Reported inhibition values are given for each entry in this list.
# measuredTarget: Sulfhydryl oxidase 1 (Homo sapiens) (UniProt O00391)
# Sequence (O00391 whole entry, looked up): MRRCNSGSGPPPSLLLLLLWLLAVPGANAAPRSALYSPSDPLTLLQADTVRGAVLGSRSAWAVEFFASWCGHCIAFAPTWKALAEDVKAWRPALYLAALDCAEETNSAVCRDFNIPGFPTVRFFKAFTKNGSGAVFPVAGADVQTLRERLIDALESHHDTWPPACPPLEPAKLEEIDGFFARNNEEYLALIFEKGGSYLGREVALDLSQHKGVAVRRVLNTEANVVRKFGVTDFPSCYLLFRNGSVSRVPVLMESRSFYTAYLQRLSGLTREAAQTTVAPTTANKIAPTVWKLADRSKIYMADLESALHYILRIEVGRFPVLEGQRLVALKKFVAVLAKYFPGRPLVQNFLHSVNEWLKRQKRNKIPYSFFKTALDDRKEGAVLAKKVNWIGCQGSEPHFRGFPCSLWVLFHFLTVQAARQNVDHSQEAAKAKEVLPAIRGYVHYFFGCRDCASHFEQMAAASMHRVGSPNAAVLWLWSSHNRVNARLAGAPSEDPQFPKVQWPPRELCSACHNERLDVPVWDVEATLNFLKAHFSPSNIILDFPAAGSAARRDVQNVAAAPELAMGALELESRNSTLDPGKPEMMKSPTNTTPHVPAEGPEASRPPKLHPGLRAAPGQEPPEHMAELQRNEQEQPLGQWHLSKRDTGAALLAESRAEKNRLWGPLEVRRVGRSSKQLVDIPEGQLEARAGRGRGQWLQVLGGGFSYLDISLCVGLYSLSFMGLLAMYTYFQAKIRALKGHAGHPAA
# protocolNotes: inhibition of human sulfhydryl oxidase QSOX1 – biochemical, HyperBlu H2O2 luminescence, HTS, primary screen (AID 1347420); further: values above 100% were filed as inconclusive
# conditionParameters: recombinant QSOX1, HyperBlu H2O2 luminescence; at 12.5 µM; hits give high values; active = any value above zero
Out of some 1,300 compounds screened, about 980 (75%) were called active. About 4% were inconclusive and are not listed. Some of the results follow.

Would you please look over these solved cases?
NC(=O)N1c2ccccc2C=Cc2ccccc21 = 12.3% (active)
CNCCCC12CCC(c3ccccc31)c1ccccc12 = 1.9% (active)
CC(C)(C)c1ccc(/C=C/C(=O)Nc2ccc3c(c2)OCCO3)cc1 = 17.7% (active)
COc1ccc(C(=O)NCc2cccnc2)cc1C(=O)NCc1cccnc1 = 1.3% (active)
Oc1cc2c(cc1O)CN(C(=S)NCCc1ccc(Cl)cc1)CCC2 = 83.2% (active)

Next up:
get_value(item= "O=NN(CCCl)C(=O)NCCCl" , readout=inhibition) returns 10.3% (active)
